Reported GI50 for target or system MDA-MB-435, by entry.

Take a look at these entries with their results.
COc1cccc(/C=N\NC(=O)c2ccncc2)c1O; 19.2 µM
COC(=O)CCc1n(Cc2ccc3ccccc3c2)c2ccccc2[n+]1Cc1ccc2ccccc2c1; 0.462 µM

With those in mind, consider the next compound.
// fetch GI50 given entry `COc1cc2c3c(n(CCCN=[N+]=[N-])c(=O)c2cc1OC)-c1ccc(F)cc1C3=O`
38.1 µM

###

# TGI per record follows
System: LOX IMVI melanoma
Experiment: NCI tumour cell line growth inhibition, 48 h

Take a look at these entries with their results.
CCCCCCCCCCCCc1ccc(S(=O)(=O)O)cc1.[Cu+2]; > 100 µM
COc1cccc(C2=NC(C(C)C)CO2)c1OC (stereo not drawn); > 100 µM
O=C1CN=C(c2ccc[nH]2)c2cc(Cl)ccc2N1; > 100 µM
COc1c(Sc2c(SCSc3cnc4ccccc4c3Sc3cnc4ccccc4c3OC)cnc3ccccc23)cnc2ccccc12; > 100 µM

Provide the reported TGI (system: LOX IMVI melanoma) for `O=c1[nH]c2nc3ccccc3c(=O)n2/c1=C/c1ccccc1`
> 100 µM

Provide the reported TGI (system: LOX IMVI melanoma) for O=C1CCC2(c3ccc(Cl)cc3)Nc3ccccc3N12 (stereo not drawn)
> 100 µM

Provide the reported TGI (system: LOX IMVI melanoma) for NC1=NN(c2ccccc2)C(=O)C1C(=O)C(=O)Nc1ccccc1 (stereo not drawn)
> 100 µM

Provide the reported TGI (system: LOX IMVI melanoma) for `Cc1nc2ccccc2c(=O)n1/N=C(\N=Nc1ccccc1)c1ccccc1Cl`
> 100 µM

Provide the reported TGI (system: LOX IMVI melanoma) for O=C(O)CCC(NC(=O)c1ccc(Oc2nc3ccccc3nc2C(=O)O)cc1)C(=O)O (stereo not drawn)
> 100 µM

Provide the reported TGI (system: LOX IMVI melanoma) for `O=C1c2ccccc2CC12Cc1cc3c(cc1C2)CCC3`
> 100 µM

Provide the reported TGI (system: LOX IMVI melanoma) for `O=C(O)c1cnc2c(ccc3[nH]cccc32)c1=O`
> 100 µM

Provide the reported TGI (system: LOX IMVI melanoma) for CCOC(=O)Cc1csc(NC(=O)C(OC(=O)c2ccc(Cl)cc2)c2ccccc2)n1 (stereo not drawn)
> 100 µM

Provide the reported TGI (system: LOX IMVI melanoma) for `C=C(CN(C)C)C(=O)c1ccccc1OC`
29.3 µM
